- SUBJECT OF TEST: T1, human recombinant soluble CD73 protein (human, UniProt P21589 27-547)
- T1 construct: also called huCD73; rhCD73
- T1 sequence: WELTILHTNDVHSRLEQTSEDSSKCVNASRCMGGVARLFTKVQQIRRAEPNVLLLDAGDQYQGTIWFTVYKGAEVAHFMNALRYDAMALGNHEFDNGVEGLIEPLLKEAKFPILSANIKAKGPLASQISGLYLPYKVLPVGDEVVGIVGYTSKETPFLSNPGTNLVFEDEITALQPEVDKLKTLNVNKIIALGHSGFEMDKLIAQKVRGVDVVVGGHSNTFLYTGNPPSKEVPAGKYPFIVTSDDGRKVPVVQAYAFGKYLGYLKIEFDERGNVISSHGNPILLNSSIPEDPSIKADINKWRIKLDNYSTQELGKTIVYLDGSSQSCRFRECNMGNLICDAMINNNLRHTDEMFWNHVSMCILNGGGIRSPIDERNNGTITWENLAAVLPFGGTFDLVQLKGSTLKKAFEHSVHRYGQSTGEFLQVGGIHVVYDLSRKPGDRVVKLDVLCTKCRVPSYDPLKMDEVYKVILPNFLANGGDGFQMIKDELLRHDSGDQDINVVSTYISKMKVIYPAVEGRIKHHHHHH
- METHOD SUMMARY: SPR, Ab captured on Protein A, soluble huCD73 as analyte

BINDER: H2L3 (antibody, human IgG1, V domains shown) VH: QIQLVQSGAEVKKPGASVKVSCKASGYAFTSYNMYWVRQAPGQSLEWMGYIDPYNGGSSYNLTFKGRVTITVDKSASTAYMELSSLRSEDTAVYYCARGYGNYKAWFAYWGQGTLVTVSS VL: DVQMTQSPSSLSASVGDRVTITCKASQSVSNDVAWYQQKPGKAPKLLIYYASTRYTGVPDRFSGSGYGTDFTFTISSLQPEDIATYYCQQDYSSLTFGQGTKLEIK
MEASUREMENT UNIT: M⁻¹ s⁻¹
kon: 120000
//
BINDER: H2L2 (antibody, human IgG1, V domains shown) VH: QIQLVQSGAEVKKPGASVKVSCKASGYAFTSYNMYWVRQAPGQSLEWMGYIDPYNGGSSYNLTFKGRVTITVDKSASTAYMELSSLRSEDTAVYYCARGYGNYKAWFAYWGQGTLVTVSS VL: DIQMTQSPSSLSASVGDRVTITCKASQSVSNDVAWYQQKPGKAPKLLIYYASTRYTGVPDRFSGSGYGTDFTFTISSLQPEDIATYYCQQDYSSLTFGQGTKLEIK
MEASUREMENT UNIT: M⁻¹ s⁻¹
kon: 118000
//
BINDER: H1L2 (antibody, human IgG1, V domains shown) VH: QIQLVQSGAEVKKPGASVKVSCKASGYTFTSYNMYWVRQAPGQRLEWMGYIDPYNGGSSYNLTFKGRVTITRDKSASTAYMELSSLRSEDTAVYYCARGYGNYKAWFAYWGQGTLVTVSS VL: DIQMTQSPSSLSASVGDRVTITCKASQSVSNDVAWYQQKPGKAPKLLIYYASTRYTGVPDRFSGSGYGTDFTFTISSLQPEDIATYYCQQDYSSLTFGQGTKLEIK
MEASUREMENT UNIT: M⁻¹ s⁻¹
kon: 135000
